Documented Inhibition across a set of molecules
Test system: Candida albicans
Conditions: Concentration 32 ug.mL-1; ASSAY_TEST Inhibition of Fungal Growth; detection method Absorption (OD530)
Description: Antifungal activity against Candida albicans ATCC 90028 (CO-ADD:FG_001); MIC in YNB media using NBS plates, by OD630
Results with a measured potency or affinity are listed apart.
Lab book: enter the figure in %, no units written.

Worked set:
INSERT INTO assay_data (smiles_input, quantity_name, quantitative_readout) VALUES
  ('CC(C)CCn1c(=O)c2sccc2n2c(=O)n(CCOc3ccccc3)nc12', 'Inhibition', 12.41),
  ('CCc1nnc2ccc(S(=O)(=O)N(Cc3ccc(OC)cc3)c3ccc(F)cc3)cn12', 'Inhibition', 0.7),
  ('Cc1cc(C)c(NC(=O)Cn2nc3ccc(SC(C)(C)C)nn3c2=O)c(C)c1', 'Inhibition', 2.38);

Dear colleague, please send me the reported Inhibition for Cc1ccc(-c2cc3c4nn(CC(=O)N5CCN(c6ccccc6F)CC5)c(=O)n4ccn3n2)cc1C when you can.
3.33

Name the recorded Inhibition of the item Cc1nc(-c2ccccc2)cc2nn(CC(=O)Nc3ccc4c(c3)OCO4)c(=O)n12 in your answer.
0.14

Give the measured Inhibition for COc1ccc(-c2nc(CSc3nc4ccccc4n4c(C(C)C)nnc34)c(C)o2)cc1
2.32

Answer with reported Inhibition of COc1ccc(NC(=O)Cn2nc3ccc(-c4ccccc4)nn3c2=O)cc1
2.69

Please report Inhibition for the following molecule: COc1cccc(Cn2nc3c(=O)n(-c4cccc(Cl)c4C)ccn3c2=O)c1
6.64

State, in one line, measured Inhibition of CCOC(=O)N1CCN(C(=O)CCc2nnc3c4cc(-c5ccccc5)nn4ccn23)CC1
1.03

Provide one value: measured Inhibition of CC(C)c1nnc2c(=O)n(CC(=O)Nc3cc(Cl)ccc3Cl)c3ccccc3n12
3.43

====

Test system: Cryptococcus neoformans
Conditions: Concentration 32 ug.mL-1; ASSAY_TEST Inhibition of Fungal Growth; detection method Resazurin; Absorption (OD600-OD570); plate type 384well; NBS; CORNING #3640
Description: Antifungal activity against Cryptococcus neoformans H99 ATCC 208821 (CO-ADD:FG_002); MIC in YNB media using NBS plates, by Resazurin OD(600-570)
Potency and affinity values are given separately.
Below, each entry is listed with its recorded Inhibition.
Reply numerically in %, unit not repeated.

INSERT INTO assay_data (molecule, quantitative_readout) VALUES
  ('COC(=O)c1ccccc1NC(=O)Cn1nc2c3cc(-c4ccc(Cl)cc4)nn3ccn2c1=O', -15.71),
  ('CCCCn1c(=O)c2sccc2n2c(CCC(=O)NC(C)C34CC5CC(CC(C5)C3)C4)nnc12 (centres undefined)', -27.66);

Hello, please tell me recorded Inhibition for this one: COc1ccc(-n2ccn3c(SCC(=O)N4CCN(c5ccccc5F)CC4)nnc3c2=O)cc1
-14.55

Answer with the recorded Inhibition of Cc1ccccc1CN(c1ccc(Cl)cc1)S(=O)(=O)c1cccn2c(C)nnc12 only.
-9.98

Fill in Inhibition for record CC(C)CCn1c(=O)c2ccc(C(=O)NC3CCCCC3)cc2n2c(=S)[nH]nc12
-13.59

For the molecule COc1ccc(OC)c(NC(=O)Cn2nc3c4c5c(sc4ncn3c2=O)CCCC5)c1 , report Inhibition.
-30.54

Provide one value: measured Inhibition of CC(C)c1ccc(NC(=O)Cn2nc3c(SCc4ccccc4)nccn3c2=O)cc1
-15.97

Give the reported Inhibition for this molecule. N#Cc1ccc(NC(=O)Cn2nc3c(SCc4ccc(Cl)cc4)nccn3c2=O)cc1
-19.24

Tell me its Inhibition given COC(=O)c1ccc(CN(c2ccc(C)cc2)S(=O)(=O)c2ccc3nnc(C)n3c2)o1 as the entry.
-13.09

====

Test system: Candida albicans
Conditions: Concentration 32 ug.mL-1; ASSAY_TEST Inhibition of Fungal Growth; detection method Absorption (OD530)
Measured potencies and affinities stand elsewhere.
quantity name: Inhibition (%)
# value in %; strip the unit string

Example molecules with recorded Inhibition:
INSERT INTO assay_data (smiles_input, system_under_test, quantitative_readout) VALUES
  ('Cc1cc(C)cc(Nc2nc(C)cc3nn(CC(=O)Nc4cccc(Cl)c4)c(=O)n23)c1', 'Candida albicans', 4.92),
  ('CC(C)Cn1c(=O)c2ccc(C(=O)NC3CCCC3)cc2n2c(=O)n(CC(=O)NC3CCCCC3)nc12', 'Candida albicans', -1.41),
  ('Cc1cc2nn(CC(=O)Nc3cccc(F)c3)c(=O)n2c(Nc2ccc(F)c(C)c2)n1', 'Candida albicans', 6.76);

Give Inhibition only, for Cc1nnc2c(=S)[nH]c3ccccc3n12 , using Candida albicans data.
-0.01

GET Inhibition where system = Candida albicans and item = Cc1ccc(C)c(NC(=O)Cn2nc3cc(C)nc(Nc4ccc(F)cc4)n3c2=O)c1
2.17

Give Candida albicans Inhibition for the following molecule: CCCn1c(=O)c2sccc2n2c(CCC(=O)NCCC34CC5CC(CC(C5)C3)C4)nnc12
5.72

Name the recorded Inhibition of CCOc1ccc(NC(=O)Cn2nc3c4c5c(sc4ncn3c2=O)CCCC5)cc1 , assay system Candida albicans.
2.52

Provide measured Inhibition on Candida albicans for CC(C)Sc1ccc2nn(CC(=O)Nc3ccccc3F)c(=O)n2n1 please.
2.46

====

System: Klebsiella pneumoniae
Details: Concentration 32 ug.mL-1;; ASSAY_TEST Inhibition of Bacterial Growth; detection method Absorption (OD600); MEDIA CAMHB; plate type 384well; NBS; CORNING #3640; time 18 hr
Description: Antibacterial activity against Klebsiella pneumoniae MDR ATCC 70063 (CO-ADD:GN_003); MIC in CAMBH media using NBS plates, by OD(600)
Results with a measured potency or affinity are listed apart.
quantity name: Inhibition
Please provide the amount together with its unit, number first.

Below, each entry is followed by its recorded Inhibition result.
INSERT INTO results (molecule, system_under_test, quantity_name, result) VALUES
  ('Cc1cc2nn(CC(=O)Nc3cccc(F)c3)c(=O)n2c(Nc2ccc(F)c(C)c2)n1', 'Klebsiella pneumoniae', 'Inhibition', '7.53%'),
  ('CSc1cccc(NC(=O)Cn2nc3c(Oc4cc(C)cc(C)c4)nccn3c2=O)c1', 'Klebsiella pneumoniae', 'Inhibition', '7.88%');

Identify Inhibition associated with the molecule Cc1ccc(N(Cc2ccccc2F)S(=O)(=O)c2ccc3nncn3c2)cc1
-0.06%

Please indicate Inhibition recorded for COc1ccc(Cn2nc3ccc(-c4ccc(Cl)cc4)nn3c2=O)cc1F
16.23%

Quickly give me recorded Inhibition for COc1ccc(OC)c(NC(=O)Cn2nc3c4cc(-c5ccc(C)c(C)c5)nn4ccn3c2=O)c1
5.66%

Tell me Inhibition reported for CC(C)c1nnc2c(SCC(=O)Nc3ccccc3C(F)(F)F)nc3ccccc3n12
13.6%

Using known records, supply Inhibition for CCOc1ccccc1NC(=O)Cn1nc2c(N3CCN(c4ccccc4C)CC3)nccn2c1=O
-9.36%

# return recorded Inhibition for input COc1cccc(-n2ccn3c(SC(C)C(=O)c4ccc(C)c(C)c4)nnc3c2=O)c1 (stereo not given)
3.32%

Answer with reported Inhibition of COc1ccc(NC(=O)CSc2nnc3c(=O)n(-c4ccccc4)ccn23)cc1
0.2%

====

Test system: Cryptococcus neoformans
Details: Concentration 32 ug.mL-1; ASSAY_TEST Inhibition of Fungal Growth; detection method Resazurin; Absorption (OD600-OD570); plate type 384well; NBS; CORNING #3640
Potency and affinity values are given separately.
# maps each entry to its Inhibition
Report the value in % with no unit label.

The examples below pair each entry with its known result.
INSERT INTO results (molecule, quantitative_readout) VALUES
  ('CC(=O)c1ccc(NC(=O)Cn2nc3ccc(Sc4ccccc4)nn3c2=O)cc1', -7.51),
  ('O=C(CSc1nnc2c3cc(-c4ccc(F)cc4)nn3ccn12)NCCc1ccccc1', -23.19),
  ('COc1ccc(-n2ccn3c(-c4ccc([N+](=O)[O-])cc4)nnc3c2=O)cc1Cl', -13.11);

Identify measured Inhibition corresponding to Cn1c(=O)c2ccc(C(=O)NC3CCCCC3)cc2n2c(=O)n(Cc3cccc(C(F)(F)F)c3)nc12
-24.7

Respond only with Inhibition recorded for Cc1cc(C)cc(N(Cc2ccccc2)S(=O)(=O)c2cccn3c(C)nnc23)c1
-6.56

Provide one value: measured Inhibition of COc1ccc(NC(=O)Cn2nc3c(Sc4cccc(F)c4)nccn3c2=O)cc1Cl
-9.78

====

System: Cryptococcus neoformans
Conditions: Concentration 32 ug.mL-1; ASSAY_TEST Inhibition of Fungal Growth; detection method Resazurin; Absorption (OD600-OD570); plate type 384well; NBS; CORNING #3640
Entries with a potency or affinity are not part of this list.
quantity name: Inhibition (%)
Give the number; % is assumed, so skip it.

Field: example entries. Status: answers known.
INSERT INTO measurements (smiles_input, unit_name, quantitative_readout) VALUES
  ('COc1cc(Cl)c(C)cc1NC(=O)Cn1nc2ccc(SC(C)(C)C)nn2c1=O', '%', -11.08),
  ('Cc1ccc(NC(=O)Cn2nc3ccc(SC(C)C)nn3c2=O)c(C)c1', '%', -5.46),
  ('Cc1cc(C)cc(Nc2nc(C)cc3nn(CC(=O)Nc4cc(F)cc(F)c4)c(=O)n23)c1', '%', -10.24);

Next up:
Supply Inhibition value. Item: O=C(Cn1nc2c(Oc3ccccc3)nccn2c1=O)Nc1ccc(F)cc1Cl
-10.04

Data origin: ChEMBL document CHEMBL4513146
